# TARGET OR SYSTEM: PDE4B2 recombinant enzyme (Homo sapiens)
# Construct: purchased BPS 60343
# Sequence (Q07343 1-564 isoform Q07343-2): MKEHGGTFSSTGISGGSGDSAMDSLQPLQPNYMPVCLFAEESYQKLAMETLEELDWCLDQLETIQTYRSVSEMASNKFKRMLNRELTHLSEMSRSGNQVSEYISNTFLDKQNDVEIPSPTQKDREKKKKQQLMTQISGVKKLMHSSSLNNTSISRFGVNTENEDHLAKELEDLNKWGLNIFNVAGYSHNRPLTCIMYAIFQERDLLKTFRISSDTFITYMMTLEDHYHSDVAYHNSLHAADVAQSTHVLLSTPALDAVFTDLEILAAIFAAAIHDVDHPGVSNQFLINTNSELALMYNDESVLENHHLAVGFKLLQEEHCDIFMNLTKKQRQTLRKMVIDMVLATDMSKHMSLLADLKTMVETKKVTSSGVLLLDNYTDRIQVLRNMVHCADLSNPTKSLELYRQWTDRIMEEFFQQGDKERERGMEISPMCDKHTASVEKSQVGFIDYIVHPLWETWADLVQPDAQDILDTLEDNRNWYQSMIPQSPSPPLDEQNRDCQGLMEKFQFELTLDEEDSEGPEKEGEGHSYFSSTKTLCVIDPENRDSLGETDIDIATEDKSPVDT
# PROCEDURE TEXT: In vitro assay of inhibitory activity against PDE 4B2 enzyme (FP, FAM-cAMP)
# Type: biochemical
# CONDITION DETAILS: in vitro screening assay
# Text: • 1. In vitro assay of the inhibitory activity of compounds against PDE 3A and PDE 4B2 enzymes • Envision 2104 Multilabel Reader (PerkinElmer) • Black 96-well Plate (Cat #6005540, PerkinElmer) • PDE3A Assay Kit (BPS, Cat. 79736), PDE4B2 Assay Kit (BPS, Cat. 60343) • PDE3A recombinant enzyme • PDE4B2 recombinant enzyme • FAM-Cyclic-3′, 5′-AMP • PDE assay buffer • Binding Agent • Binding Agent Diluent (cAMP) […]
pIC50: −log10 of the molar value.
QUANTITY: pIC50

>>> print(df.to_string())
                                 cpd_smiles                          target_or_system  quantity  recorded_measurement
0  CCOc1cc2c(cc1OC)-c1c/c(=N\c3c(C)cc(C4CC4)cc3C)n(CCNC(=O)c3c(O)nnn3C)c(=O)n1CC2  PDE4B2 recombinant enzyme (Homo sapiens)     pIC50                  8.85

1. COc1cc2c(cc1OC)-c1c/c(=N\c3c(C)cc(C4CC4)cc3C)n(CCNC(=O)c3c(O)nnn3C)c(=O)n1CC2
2. CCOc1cc2c(cc1OC)-c1c/c(=N\c3c(C)cc(OC)cc3C)n(CCNC(=O)c3c(O)nnn3C)c(=O)n1CC2
Would you mind telling me which has the lower recorded pIC50 between 1 and 2 ? Identify your pick by its label.
1
